system: Escherichia coli TOP10; experiment: shrunken log2 fold change of peptide-encoding DNA abundance (4.5 h post-induction vs induction); higher = less antimicrobial activity (less host growth inhibition); conditions: time post-induction: 4.5 h; library: site-saturation at positions 5, 18, 19, 20
Returns class 1 if the recorded shrunken log2 fold change is greater than or equal to -0.09, and class 0 otherwise.

{"Seq string": "RRIRMRPPRLPRPRPRPALTPRP", "Group label": "class 1"}
{"Seq string": "RRIRWRPPRLPRPRPRPPINPRP", "Group label": "class 0"}
{"Seq string": "RRIRERPPRLPRPRPRPKHKPRP", "Group label": "class 0"}
{"Seq string": "RRIRRRPPRLPRPRPRPKDVPRP", "Group label": "class 1"}
{"Seq string": "RRIRVRPPRLPRPRPRPQIPPRP", "Group label": "class 0"}
{"Seq string": "RRIRMRPPRLPRPRPRPIVFPRP", "Group label": "class 1"}
{"Seq string": "RRIRPRPPRLPRPRPRPYQVPRP", "Group label": "class 0"}
{"Seq string": "RRIRWRPPRLPRPRPRPEHYPRP", "Group label": "class 0"}

###

system: Escherichia coli TOP10; assay: shrunken log2 fold change of peptide-encoding DNA abundance (4.5 h post-induction vs induction); higher = less antimicrobial activity (less host growth inhibition); conditions: time post-induction: 4.5 h; library: site-saturation at positions 5, 18, 19, 20;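 note: peptides expressed intracellularly from a pBAD plasmid library in pooled LB shake-flask culture, induced with 0.3% L-arabinose, DNA abundance read by NGS, three biological replicates, DESeq2 with apeglm shrinkage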

{"Seq string": "RRIRHRPPRLPRPRPRPKFPPRP", "shrunken log2 fold change": 0.442}
{"Seq string": "RRIRWRPPRLPRPRPRPEKGPRP", "shrunken log2 fold change": 0.0282}
{"Seq string": "RRIRQRPPRLPRPRPRPHMCPRP", "shrunken log2 fold change": -0.0238}
{"Seq string": "RRIRTRPPRLPRPRPRPTPNPRP", "shrunken log2 fold change": 0.293}
{"Seq string": "RRIRGRPPRLPRPRPRPRSRPRP", "shrunken log2 fold change": 0.368}
{"Seq string": "RRIRERPPRLPRPRPRPQYNPRP", "shrunken log2 fold change": -0.927}
{"Seq string": "RRIRMRPPRLPRPRPRPQALPRP", "shrunken log2 fold change": 0.0439}
{"Seq string": "RRIRSRPPRLPRPRPRPGWLPRP", "shrunken log2 fold change": 0.177}
{"Seq string": "RRIRVRPPRLPRPRPRPIKNPRP", "shrunken log2 fold change": -0.361}
{"Seq string": "RRIRERPPRLPRPRPRPLSEPRP", "shrunken log2 fold change": 0.0884}
{"Seq string": "RRIRCRPPRLPRPRPRPGFLPRP", "shrunken log2 fold change": -0.245}
{"Seq string": "RRIRSRPPRLPRPRPRPVTGPRP", "shrunken log2 fold change": 0.255}
{"Seq string": "RRIRKRPPRLPRPRPRPTDPPRP", "shrunken log2 fold change": 0.0238}
{"Seq string": "RRIRGRPPRLPRPRPRPIHEPRP", "shrunken log2 fold change": -0.135}
{"Seq string": "RRIRLRPPRLPRPRPRPVQTPRP", "shrunken log2 fold change": 0.102}
{"Seq string": "RRIRRRPPRLPRPRPRPAIMPRP", "shrunken log2 fold change": 0.275}
{"Seq string": "RRIRLRPPRLPRPRPRPWWMPRP", "shrunken log2 fold change": -0.0102}
{"Seq string": "RRIRRRPPRLPRPRPRPSNFPRP", "shrunken log2 fold change": -0.177}
{"Seq string": "RRIRCRPPRLPRPRPRPQSPPRP", "shrunken log2 fold change": -0.0224}
{"Seq string": "RRIRYRPPRLPRPRPRPPRYPRP", "shrunken log2 fold change": -0.226}
{"Seq string": "RRIRIRPPRLPRPRPRPWEPPRP", "shrunken log2 fold change": -0.146}
{"Seq string": "RRIRSRPPRLPRPRPRPTSWPRP", "shrunken log2 fold change": 0.239}
{"Seq string": "RRIRRRPPRLPRPRPRPAWAPRP", "shrunken log2 fold change": 0.791}
{"Seq string": "RRIRCRPPRLPRPRPRPRAQPRP", "shrunken log2 fold change": 0.4}
{"Seq string": "RRIRLRPPRLPRPRPRPFYDPRP", "shrunken log2 fold change": 0.00534}
{"Seq string": "RRIRQRPPRLPRPRPRPGAFPRP", "shrunken log2 fold change": -0.158}
{"Seq string": "RRIRRRPPRLPRPRPRPMVFPRP", "shrunken log2 fold change": 0.182}
{"Seq string": "RRIRLRPPRLPRPRPRPGREPRP", "shrunken log2 fold change": 0.231}
{"Seq string": "RRIRNRPPRLPRPRPRPPWDPRP", "shrunken log2 fold change": 0.144}
{"Seq string": "RRIRVRPPRLPRPRPRPLIYPRP", "shrunken log2 fold change": -0.632}
{"Seq string": "RRIRPRPPRLPRPRPRPRGLPRP", "shrunken log2 fold change": 0.198}
{"Seq string": "RRIRWRPPRLPRPRPRPRGYPRP", "shrunken log2 fold change": 0.209}
{"Seq string": "RRIRTRPPRLPRPRPRPTNNPRP", "shrunken log2 fold change": -0.618}
{"Seq string": "RRIRIRPPRLPRPRPRPMYGPRP", "shrunken log2 fold change": -0.437}
{"Seq string": "RRIRSRPPRLPRPRPRPCVSPRP", "shrunken log2 fold change": -0.391}
{"Seq string": "RRIRTRPPRLPRPRPRPCKTPRP", "shrunken log2 fold change": -0.0173}
{"Seq string": "RRIRWRPPRLPRPRPRPILTPRP", "shrunken log2 fold change": 0.00604}
{"Seq string": "RRIRMRPPRLPRPRPRPICFPRP", "shrunken log2 fold change": 0.149}
{"Seq string": "RRIRARPPRLPRPRPRPARHPRP", "shrunken log2 fold change": 0.424}
{"Seq string": "RRIRARPPRLPRPRPRPLRTPRP", "shrunken log2 fold change": 0.541}
{"Seq string": "RRIRSRPPRLPRPRPRPDAEPRP", "shrunken log2 fold change": 0.984}
{"Seq string": "RRIRWRPPRLPRPRPRPDAHPRP", "shrunken log2 fold change": 0.0254}
{"Seq string": "RRIRGRPPRLPRPRPRPYNRPRP", "shrunken log2 fold change": 0.00858}
{"Seq string": "RRIRDRPPRLPRPRPRPKGSPRP", "shrunken log2 fold change": -0.145}
{"Seq string": "RRIRFRPPRLPRPRPRPMDNPRP", "shrunken log2 fold change": 0.000389}
{"Seq string": "RRIRVRPPRLPRPRPRPMNRPRP", "shrunken log2 fold change": -0.182}
{"Seq string": "RRIRARPPRLPRPRPRPCGEPRP", "shrunken log2 fold change": -0.00932}
{"Seq string": "RRIRHRPPRLPRPRPRPHTWPRP", "shrunken log2 fold change": -0.301}
{"Seq string": "RRIRGRPPRLPRPRPRPCPWPRP", "shrunken log2 fold change": -0.149}
{"Seq string": "RRIRFRPPRLPRPRPRPFNRPRP", "shrunken log2 fold change": 0.0118}
{"Seq string": "RRIRHRPPRLPRPRPRPGPDPRP", "shrunken log2 fold change": -0.227}
{"Seq string": "RRIRVRPPRLPRPRPRPAYSPRP", "shrunken log2 fold change": -0.167}
{"Seq string": "RRIRKRPPRLPRPRPRPALWPRP", "shrunken log2 fold change": 0.27}
{"Seq string": "RRIRIRPPRLPRPRPRPPNHPRP", "shrunken log2 fold change": -0.475}
{"Seq string": "RRIRGRPPRLPRPRPRPFRGPRP", "shrunken log2 fold change": -0.0655}
{"Seq string": "RRIRPRPPRLPRPRPRPAFQPRP", "shrunken log2 fold change": 0.156}
{"Seq string": "RRIRNRPPRLPRPRPRPQSGPRP", "shrunken log2 fold change": 0.0495}
{"Seq string": "RRIRQRPPRLPRPRPRPNFCPRP", "shrunken log2 fold change": 0.117}
{"Seq string": "RRIRCRPPRLPRPRPRPFVTPRP", "shrunken log2 fold change": 0.663}
{"Seq string": "RRIRKRPPRLPRPRPRPWFKPRP", "shrunken log2 fold change": -0.0948}
{"Seq string": "RRIRWRPPRLPRPRPRPCCNPRP", "shrunken log2 fold change": -0.0508}
{"Seq string": "RRIRERPPRLPRPRPRPTPLPRP", "shrunken log2 fold change": 0.0281}
{"Seq string": "RRIRVRPPRLPRPRPRPPAYPRP", "shrunken log2 fold change": 0.0576}
